Test system: Dkk1-LRP5-TCF-Luciferase
Experiment: Functional Dkk1-LRP5-TCF-Luciferase Assay in U2OS Cells
Settings: maximum fold induction over DMSO control
A = MAX FOLD Induction/DMSO CONTROL values by entry
readout-type: A = MAX FOLD Induction/DMSO CONTROL

{"smiles-entry": "CN(c1nccc(-c2ccc3ccccc3c2)n1)C1CCN(CC(N)=O)CC1", "tested-system": "Dkk1-LRP5-TCF-Luciferase", "readout-type": "A = MAX FOLD Induction/DMSO CONTROL", "observed": "2.215 fold"}
{"smiles-entry": "CC(=O)NCC1CCN(c2nccc(-c3ccc4ccccc4c3)n2)CC1", "tested-system": "Dkk1-LRP5-TCF-Luciferase", "readout-type": "A = MAX FOLD Induction/DMSO CONTROL", "observed": "2.273 fold"}
{"smiles-entry": "c1ccc2cc(-c3ccnc(N4CC[C@H](N5CCOCC5)C4)n3)ccc2c1", "tested-system": "Dkk1-LRP5-TCF-Luciferase", "readout-type": "A = MAX FOLD Induction/DMSO CONTROL", "observed": "2.405 fold"}
{"smiles-entry": "c1ccc2cc(-c3ccnc(N4CC[C@@H](n5ccnc5)C4)n3)ccc2c1", "tested-system": "Dkk1-LRP5-TCF-Luciferase", "readout-type": "A = MAX FOLD Induction/DMSO CONTROL", "observed": "1.960 fold"}
{"smiles-entry": "CCOC(=O)C1CCN(c2nccc(-c3ccc4ccccc4c3)n2)CC1", "tested-system": "Dkk1-LRP5-TCF-Luciferase", "readout-type": "A = MAX FOLD Induction/DMSO CONTROL", "observed": "1.950 fold"}
{"smiles-entry": "Cc1ccc2cc(-c3ccnc(N4CCC(CN)CC4)n3)ccc2c1", "tested-system": "Dkk1-LRP5-TCF-Luciferase", "readout-type": "A = MAX FOLD Induction/DMSO CONTROL", "observed": "2.820 fold"}
{"smiles-entry": "NCCC1CCN(c2nccc(-c3ccc4ccccc4c3)n2)CC1", "tested-system": "Dkk1-LRP5-TCF-Luciferase", "readout-type": "A = MAX FOLD Induction/DMSO CONTROL", "observed": "1.420 fold"}
{"smiles-entry": "COC(=O)N1CC[C@H](Nc2nccc(-c3ccc4ccccc4c3)n2)C1", "tested-system": "Dkk1-LRP5-TCF-Luciferase", "readout-type": "A = MAX FOLD Induction/DMSO CONTROL", "observed": "2.725 fold"}
{"smiles-entry": "O=C(N[C@H]1CCN(c2nccc(-c3ccc4ccccc4c3)n2)C1)C(F)(F)F", "tested-system": "Dkk1-LRP5-TCF-Luciferase", "readout-type": "A = MAX FOLD Induction/DMSO CONTROL", "observed": "3.620 fold"}
{"smiles-entry": "COC(=O)N1CC[C@@H](Nc2nccc(-c3ccc4ccccc4c3)n2)C1", "tested-system": "Dkk1-LRP5-TCF-Luciferase", "readout-type": "A = MAX FOLD Induction/DMSO CONTROL", "observed": "1.360 fold"}

----------
System: Dkk1-LRP5-TCF-Luciferase
Experiment: Functional Dkk1-LRP5-TCF-Luciferase Assay in U2OS Cells
Settings: maximum fold induction over DMSO control
A = MAX FOLD Induction/DMSO CONTROL values for the compounds below.

{"compound": "CS(=O)(=O)NC1CCCN(c2nccc(-c3ccc4ccccc4c3)n2)CC1 (stereo not shown)", "tested-system": "Dkk1-LRP5-TCF-Luciferase", "A = MAX FOLD Induction/DMSO CONTROL (fold)": 1.120}
{"compound": "NC(=O)NCCC1CCN(c2nccc(-c3ccc4ccccc4c3)n2)CC1", "tested-system": "Dkk1-LRP5-TCF-Luciferase", "A = MAX FOLD Induction/DMSO CONTROL (fold)": 1.112}
{"compound": "c1ccc2cc(-c3ccnc(NC4CCNCC4)n3)ccc2c1", "tested-system": "Dkk1-LRP5-TCF-Luciferase", "A = MAX FOLD Induction/DMSO CONTROL (fold)": 3.723}
{"compound": "CCN(CCO)[C@@H]1CCN(c2nccc(-c3ccc4ccccc4c3)n2)C1", "tested-system": "Dkk1-LRP5-TCF-Luciferase", "A = MAX FOLD Induction/DMSO CONTROL (fold)": 3.430}
{"compound": "CS(=O)(=O)NCCN1CCN(c2nccc(-c3ccc4ccccc4c3)n2)CC1", "tested-system": "Dkk1-LRP5-TCF-Luciferase", "A = MAX FOLD Induction/DMSO CONTROL (fold)": 1.700}
{"compound": "CN1CCN([C@H]2CCN(c3nccc(-c4ccc5ccccc5c4)n3)C2)CC1", "tested-system": "Dkk1-LRP5-TCF-Luciferase", "A = MAX FOLD Induction/DMSO CONTROL (fold)": 7.175}
{"compound": "CN(C)C1CCN(c2nccc(-c3ccc4ccccc4c3)n2)C1 (stereo not shown)", "tested-system": "Dkk1-LRP5-TCF-Luciferase", "A = MAX FOLD Induction/DMSO CONTROL (fold)": 5.503}
{"compound": "CS(=O)(=O)N[C@H]1CC[C@H](Nc2nccc(-c3ccc4ccccc4c3)n2)CC1", "tested-system": "Dkk1-LRP5-TCF-Luciferase", "A = MAX FOLD Induction/DMSO CONTROL (fold)": 2.940}
{"compound": "CN(C)[C@H]1CCN(C[C@@H]2CCN(c3nccc(-c4ccc5ccccc5c4)n3)C2)C1", "tested-system": "Dkk1-LRP5-TCF-Luciferase", "A = MAX FOLD Induction/DMSO CONTROL (fold)": 1.660}
{"compound": "NCC[C@@H]1CCCN1c1nccc(-c2ccc3ccccc3c2)n1", "tested-system": "Dkk1-LRP5-TCF-Luciferase", "A = MAX FOLD Induction/DMSO CONTROL (fold)": 2.950}
{"compound": "N[C@H]1CC[C@H](Nc2nccc(-c3ccc4ccccc4c3)n2)CC1", "tested-system": "Dkk1-LRP5-TCF-Luciferase", "A = MAX FOLD Induction/DMSO CONTROL (fold)": 4.730}
{"compound": "CN1CCN(C[C@H]2CCN(c3nccc(-c4ccc5ccccc5c4)n3)C2)CC1", "tested-system": "Dkk1-LRP5-TCF-Luciferase", "A = MAX FOLD Induction/DMSO CONTROL (fold)": 2.180}
{"compound": "NC(=O)NCC1CCN(c2nccc(-c3ccc4ccccc4c3)n2)C1 (stereo not shown)", "tested-system": "Dkk1-LRP5-TCF-Luciferase", "A = MAX FOLD Induction/DMSO CONTROL (fold)": 1.720}
